- testedSystem: recombinant caspase 3 (Homo sapiens)
- Construct: His tag (C); made in house; host or cells: E. coli
- runDescription: Caspase 3 Inhibition Assay (Ac-DEVD-AFC fluorogenic substrate cleavage)
- Format: biochemical
- testParameters: @ 50 μM compound; recombinant caspase 3, Ac-DEVD-AFC 25 μM, pH 7.2, 23° C.; read-out: percent inhibition at the highest compound concentration
assayEndpoint: inhibition at 50 µM (%)
Give the number; % is assumed, so skip it.

Some molecules with known inhibition at 50 µM results, for comparison:
COc1ccc2c(c1)C(=O)C1=NCCCN12 : 9
CC(=O)N1CCN(C(=O)c2ccc3c(c2)C(=O)C2=NCC(C)(C)CN23)CC1 : 28
Cc1ccc2c(c1)C(=O)C1=NCCCN12 : 10
CC1(C)CN=C2C(=O)c3cc(C(=O)N4CCc5ccccc54)ccc3N2C1 : 46

Now examine the next entry.
q: Which inhibition at 50 µM value is on record for CC1(C)CN=C2C(=O)c3cc(C(=O)Nc4ccccc4)ccc3N2C1 ?
a: 36

###

- testedSystem: recombinant caspase 3 (Homo sapiens, UniProt P42574)
- Construct: His tag (C)
- Sequence (P42574 29-175 limits assumed, species assumed): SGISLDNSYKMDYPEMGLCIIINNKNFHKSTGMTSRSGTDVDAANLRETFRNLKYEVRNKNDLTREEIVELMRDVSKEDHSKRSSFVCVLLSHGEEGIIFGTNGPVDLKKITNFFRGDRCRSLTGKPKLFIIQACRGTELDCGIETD
- Sequence (P42574 176-277 limits assumed, species assumed): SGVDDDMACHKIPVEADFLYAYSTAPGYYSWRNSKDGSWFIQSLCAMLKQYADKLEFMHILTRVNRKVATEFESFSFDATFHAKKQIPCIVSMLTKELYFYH
- runDescription: Caspase 3 Inhibition Assay (Ac-DEVD-AFC fluorogenic substrate cleavage)
- testParameters: recombinant caspase 3 0.25 nM, Ac-DEVD-AFC 25 μM, pH 7.2, 23° C.
Below, each entry is listed alongside its reported log10(IC50).
A value of 2 here means IC50 of 100 in nM, since values are log10.

Some compounds with known log10(IC50) results, for comparison:
Cc1ccc(S(=O)(=O)Nc2ccc3c(c2)C(=O)C2=NCC(C)(C)CN23)cc1 : 2.85
COC[C@@H]1Cc2ccccc2N1S(=O)(=O)c1ccc2c(c1)C(=O)C1=NCC(C)(C)CN12 : 2.74
CNS(=O)(=O)c1ccc2c(c1)C(=O)C1=NCCCN12 : 3.10
CC1(C)CN=C2C(=O)c3cc(NS(=O)(=O)c4cc(C(F)(F)F)cc(C(F)(F)F)c4)ccc3N2C1 : 3.50
CC1(C)CN=C2C(=O)c3cc(C(=O)N4CCCCC4)ccc3N2C1 : 4.32

Now examine the next entry.
q: Item: CC1(C)CN=C2C(=O)c3cc(S(=O)(=O)N4CCCC4)ccc3N2C1 Test system: recombinant caspase 3 (Homo sapiens, UniProt P42574) Read-out: log10(IC50) Value: ?
a: 0.95

###

Where a name gives a salt, the structure may show the parent alone.
assayEndpoint: melting point

CC1(C)CN=C2C(=O)c3cc(S(=O)(=O)N4CCC[C@H]4COc4ccccc4)ccc3N2C1 : 73 to 88 °C (dec.)

q: Which melting point value is on record for O=C1C2=NCCCN2c2ccc(O)cc21 [Example 19] ?
a: 265 °C (dec.)

q: Likewise for O=C(Nc1ccc2c(c1)C(=O)C1=NCCCN12)c1ccccc1 (as salt: trifluoroacetic acid salt) [Example 17] ?
a: 155 to 168 °C

q: Likewise for COC[C@@H]1CCCN1S(=O)(=O)c1ccc2c(c1)C(=O)C1=NCCCN12 [Example 1] ?
a: 171 to 172 °C

q: Likewise for COC[C@@H]1CCCN1S(=O)(=O)c1cc2c(cc1Cl)N1CCCN=C1C2=O (hydrate or solvate) [Example 5] ?
a: 127 to 130 °C

q: Likewise for O=C1C2=NCCCN2c2cc(Cl)c([N+](=O)[O-])cc21 (hydrate or solvate) [Example 15] ?
a: 152 to 165 °C

Origin of values: patent US7256198B2
